# Tested on: UO-31 renal
# assay method text: NCI-60 one-dose screen, 48 h (100 = growth as untreated, 0 = no growth, -100 = all killed)
# experimental setup: 10 µM unless noted
The panel holds about 83,000 compounds, 20% with a hit somewhere; the sample as a whole holds those more often.
Please go through the items and note down their growth.
Entry rule: numbers only, all in %.

Query :: Which growth value belongs to "O=C(O)c1ccc(-n2cc(CNc3cccc(Cl)c3)c(-c3ccc(F)cc3)n2)cc1" ?
Result :: 94.4

Query :: Queued: COc1cc2nc(Cl)nc(Nc3cccc(C4=Nc5c(N)nc(N)nc5NC(c5ccccc5)C4)c3)c2cc1OC (stereo not given)
Result :: 94.4

Query :: Queued: "CCn1c(SCC(=O)Nc2cccc(C(=O)/C=C/c3ccc(C)cc3)c2)nc2ccccc2c1=O"
Result :: 58.9

Query :: Queued: "Cc1ccc(-n2c(/C=C3\C(=O)Nc4ccccc43)ccc2CO)cc1"
Result :: 65

Query :: Queued: "NC(N)=Nc1ccc(Oc2cccc(NC(N)=Nc3ccc(I)cc3F)c2)cn1"
Result :: 83.8
